Cited source for all entries: paper PMC11823630

- System: P. aeruginosa 41B
- method_description: MIC, CLSI broth microdilution in BD Phoenix AST Broth
- Assay type: cell-based, Pseudomonas aeruginosa
- settings: Pseudomonas aeruginosa; strain 41B; agent alone; 37°C, 18–22 h; three biological replicates
Entries and their measured MIC follow.
measurement_label: MIC (µg/mL)

C[C@@H](O)[C@H]1C(=O)N2C(C(=O)O)=C(S[C@@H]3CN[C@H](C(=O)N(C)C)C3)[C@H](C)[C@H]12	16
CN(C)[C@@H]1C(O)=C(C(N)=O)C(=O)[C@@]2(O)C(O)=C3C(=O)c4c(O)cccc4[C@@](C)(O)[C@H]3C[C@@H]12	16
CN(C)c1cc(NC(=O)CNC(C)(C)C)c(O)c2c1C[C@H]1C[C@H]3[C@H](N(C)C)C(O)=C(C(N)=O)C(=O)[C@@]3(O)C(O)=C1C2=O	8
CN(C)c1ccc(O)c2c1C[C@H]1C[C@H]3[C@H](N(C)C)C(O)=C(C(N)=O)C(=O)[C@@]3(O)C(O)=C1C2=O	16
C[C@H]1[C@H](NC(=O)/C(=N\OC(C)(C)C(=O)O)c2csc(N)n2)C(=O)N1S(=O)(=O)O	8
C[C@@H](O)[C@H]1C(=O)N2C(C(=O)O)=C(SCCN=CN)C[C@H]12	16

====

- Tested on: PAO1 mutant MIN8_4, pilZ(nt18InsT)
- method_description: MIC, Sensititre custom plate
- Type: cell-based
- settings: Pseudomonas aeruginosa, PAO1, read-out: MIC, Sensititre
Entries and their measured MIC follow.
measurement_label: MIC (µg/mL)

NC[C@H]1O[C@H](O[C@H]2[C@H](O)[C@@H](O[C@H]3O[C@H](CO)[C@@H](O)[C@H](N)[C@H]3O)[C@H](N)C[C@@H]2N)[C@H](N)C[C@@H]1O [TOB, tobramycin]	0.5
O=C(O)c1cn(C2CC2)c2cc(N3CCNCC3)c(F)cc2c1=O [CIP, ciprofloxacin]	0.5
C[C@@H](O)[C@H]1C(=O)N2C(C(=O)O)=C(SCCN=CN)C[C@H]12 [Imipenem, imipenem]	2
CC(C)(O/N=C(\C(=O)N[C@@H]1C(=O)N2C(C(=O)[O-])=C(C[n+]3ccccc3)CS[C@H]12)c1csc(N)n1)C(=O)O [Ceftazidime, ceftazidime]	4
CO/N=C(\C(=O)N[C@@H]1C(=O)N2C(C(=O)[O-])=C(C[N+]3(C)CCCC3)CS[C@H]12)c1csc(N)n1 [Cefepime, cefepime]	4
C[C@H]1[C@H](NC(=O)/C(=N\OC(C)(C)C(=O)O)c2csc(N)n2)C(=O)N1S(=O)(=O)O [Aztreonam, aztreonam]	16
C[C@@H](O)[C@H]1C(=O)N2C(C(=O)O)=C(S[C@@H]3CN[C@H](C(=O)N(C)C)C3)[C@H](C)[C@H]12 [Meropenem, meropenem]	2
CC1(C)S[C@@H]2[C@H](NC(=O)[C@H](C(=O)O)c3ccsc3)C(=O)N2[C@H]1C(=O)O [TIC, ticarcillin]	64

====

- Tested on: P. aeruginosa PAO1
- method_description: MIC, CLSI broth microdilution in BD Phoenix AST Broth
- Type: cell-based, Pseudomonas aeruginosa
- settings: Pseudomonas aeruginosa, PAO1, strain PAO1; agent alone; 37°C, 18–22 h; three biological replicates; read-out: MIC
measurement_label: MIC (µg/mL)

C[C@H]1c2cccc(O)c2C(=O)C2=C(O)[C@]3(O)C(=O)C(C(N)=O)=C(O)[C@@H](N(C)C)[C@@H]3[C@@H](O)[C@@H]21	16
CC(C)(O/N=C(\C(=O)N[C@@H]1C(=O)N2C(C(=O)[O-])=C(C[n+]3ccccc3)CS[C@H]12)c1csc(N)n1)C(=O)O	2
CCn1cc(C(=O)O)c(=O)c2cc(F)c(N3CCNCC3)cc21	0.5
C[C@@H](O)[C@H]1C(=O)N2C(C(=O)O)=C(S[C@@H]3CN[C@H](C(=O)N(C)C)C3)[C@H](C)[C@H]12	0.5
C[C@H]1COc2c(N3CCN(C)CC3)c(F)cc3c(=O)c(C(=O)O)cn1c23	0.5
CN(C)c1cc(NC(=O)CNC(C)(C)C)c(O)c2c1C[C@H]1C[C@H]3[C@H](N(C)C)C(O)=C(C(N)=O)C(=O)[C@@]3(O)C(O)=C1C2=O	2
C[C@H]1[C@H](NC(=O)/C(=N\OC(C)(C)C(=O)O)c2csc(N)n2)C(=O)N1S(=O)(=O)O	8
